In this section we review reported protein stability index values for a set of variants.
B1: INTS4 (parent)
chain: AKQIMEETYKMEFMYSGVENKQVV

variants of: B1; test: protein stability index of a GFP-peptide fusion (GPS, HEK-293T) (PSI 1-6); higher = more stable; conditions: c terminus: a fixed tail appended;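 further: lentivirally expressed fusions sorted by FACS into six bins by GFP to DsRed ratio, PSI derived from sequencing read proportions per bin multiplied by bin number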
Please reply with the number alone, leaving off any unit.

Solved cases (4 shown):
- Y9H: 3.61
- F13P: 3.66
- E19K: 1.07
- N20G: 2.55

// protein stability index lookup, variant = M14E , result: 2.54

Form field protein stability index, entry Y15C : 1.93

Summary for this variant, S16G : protein stability index is 2.14

This collection of values is drawn from the supplement of paper PMC10567573.
